assay: method code SF-HPLC, from DOI: 10.1248/cpb.46.274
Overview of reported logP across a group of molecules:

Before answering, review these 3 worked examples.
Q. Return logP (reported value) for this molecule: `CC(=O)/C=C/c1ccc(C(F)(F)F)cc1`
A. 3.13

Q. Determine its reported logP: `CC(=O)C=Cc1ccc(OC(C)=O)cc1`
A. 1.63

Q. Fill in logP for record `N#Cc1ccc(C=CC(=O)C(F)(F)F)cc1`
A. 2.42

Next:
Q. Read the entry `O=C(C=Cc1ccc(Cl)cc1)C(F)(F)F` and write its reported logP.
A. 3.63

Q. Identify measured logP corresponding to `CC(=O)/C=C/c1ccc(Cl)cc1`
A. 2.8

Q. Give a short answer stating reported logP for `O=C(C=Cc1cccc(Cl)c1)C(F)(F)F` .
A. 3.58

Q. Could you please provide reported logP for `O=C(C=Cc1cccc([N+](=O)[O-])c1)C(F)(F)F` ? Thanks!
A. 2.66

Q. Specify logP for `CC(=O)C=Cc1cccc(F)c1` and stop.
A. 2.25

====

In this section we review reported logP values for a set of compounds.
assay: method code SF-HPLC, from DOI: 10.1248/cpb.46.274
// no unit string in output, number only

Q. Please supply the value of reported logP for the item `CCc1ccc(/C=C/C(C)=O)cc1`
A. 3.26

New cases:
Q. Provide only the value of recorded logP for `CC(=O)C=Cc1ccc(Br)cc1`
A. 3.03

====

test: method code SF-HPLC, from DOI: 10.1248/cpb.46.274
Mark each entry y if its logP sits below 3, and n for all others.

# count of solved cases: 5
Q. State whether 3 exceeds logP recorded for `CC(=O)/C=C/c1ccc(N(C)C)cc1` .
A. y

Q. For `CC(=O)C=Cc1ccc(C)cc1` , is the recorded logP below the cut-off of 3?
A. y

Q. Please indicate whether the reported logP of `CC(=O)/C=C/c1cccc(C)c1` is strictly below 3.
A. y

Q. Below 3 on logP? Entry `CC(=O)/C=C/c1ccccc1F`
A. y

Q. Input `COc1ccc(/C=C/C(C)=O)cc1` ; condition: logP strictly below 3. Does it hold?
A. y

Continuing:
Q. Confirm or reject: logP of `CC(=O)/C=C/c1cccc([N+](=O)[O-])c1` lies strictly below 3
A. y

Q. Would you kindly verify if logP of `N#Cc1cccc(/C=C/C(=O)C(F)(F)F)c1` is strictly less than 3?
A. y

Q. Please indicate whether the reported logP of `CC(=O)/C=C/c1ccccc1C` is strictly below 3.
A. y

====

assay: method code SF-HPLC, from DOI: 10.1248/cpb.46.274
assay readout: logP
Form rule: numeric answer, no unit written next to it.

Recorded logP, per entry:
Q. Entry `O=C(C=Cc1ccccc1Cl)C(F)(F)F` needs its logP filled in; supply it.
A. 3.5

Q. Name the recorded logP of the molecule listed here: `CC(=O)/C=C/c1cccc(Br)c1`
A. 3.02

Q. // fetch logP given entry `COc1cccc(/C=C/C(C)=O)c1`
A. 2.27

Next molecule, logP to be filled in.
Q. Consider the molecule `CC(=O)/C=C/c1ccccc1O` . State its measured logP.
A. 2.19

====

Listed compounds paired with reported logP
test: method code SF-HPLC, from DOI: 10.1248/cpb.46.274

Some compounds with recorded logP:
Q. Return value of logP for input `COc1ccccc1C=CC(=O)C(F)(F)F` , no commentary.
A. 3.39

Q. Retrieve logP measured for `COc1ccccc1/C=C/C(C)=O` and print it.
A. 2.42

Q. State its logP: `CC(=O)/C=C/c1ccccc1C(F)(F)F`
A. 3.14

Q. Fill in logP for record `CC(=O)/C=C/c1cccc(Cl)c1`
A. 2.81

Q. Using known records, supply logP for `CCOc1ccc(C=CC(C)=O)cc1`
A. 2.73

Q. Return reported logP. Input compound: `COc1ccc(C=CC(=O)C(F)(F)F)cc1`
A. 3.33

Further cases:
Q. Supply recorded logP for `O=C(C=Cc1ccccc1)C(F)(F)F` here.
A. 3.01

Q. Fill in logP for record `CC(=O)/C=C/c1ccc(O)cc1`
A. 1.86

Q. Please supply the value of reported logP for the item `CC(=O)C=Cc1ccc(C#N)cc1`
A. 1.64

The values you see were collected from the SangsterLogP compilation.
